test system: SK-MEL-28; assay: NCI tumour cell line growth inhibition, 48 h
Activity calls are given as the source filed them. No stated cut-off is given here; in the data, active = GI50 up to about 1.1 µM and inactive = higher.
Listed molecules paired with reported GI50

Below are worked cases with known answers.
O=c1c2cc(-c3ccccc3)cnc2sn1-c1ccc(Oc2ccccc2)cc1 : > 100 µM (inactive)
CCCOC(=O)CNC(=O)OC(C)(C)C : > 100 µM (inactive)
CS(=O)(=O)O[C@H]1[C@H](O)c2ccccc2[C@@H]1N=[N+]=[N-] : > 100 µM (inactive)
Cc1ccc(S[C@@](C=O)(NC(=O)OCc2ccccc2)C(F)(F)F)cc1 : 25.3 µM (inactive)
CCn1c(SCC(=O)N/N=C2\SCC(=O)N2c2ccc(C)cc2)nc2ccccc2c1=O : 20.6 µM (inactive)
CC(C)(C)C1=C(Br)C(F)(C(C)(C)C)OP1(=O)c1ccccc1 (stereo unspecified) : 19.2 µM (inactive)

## Task # return GI50 for COc1cc(C2C3=C(COC3=O)Oc3cc4c(cc32)OCO4)ccc1OC(C)=O (stereo unspecified) , test system: SK-MEL-28
## Result 10.8 µM (inactive)

----------
tested on: Malme-3M; experiment: NCI tumour cell line growth inhibition, 48 h
The source made the active and inactive calls. Rule as the data show it: active = GI50 up to about 1.1 µM and inactive = higher.
Listed compounds paired with reported GI50

Below are worked cases with known answers.
O=C(O)C(Cc1c[nH]c2ccccc12)N1C(=O)c2ccccc2C1=O (centres undefined) : > 100 µM (inactive)
O=C1CSC(c2ccc([N+](=O)[O-])cc2)N1c1ccc(-n2c(-c3ccccc3)nc3ccccc3c2=O)cc1 (centres undefined) : > 100 µM (inactive)
CC12C(=O)CC(CC1=O)C2(C)C : > 100 µM (inactive)
CCN(CC)C(=O)C(C)n1cc(C)c(=O)[nH]c1=O (centres undefined) : > 100 µM (inactive)
COC(=O)C1=C(OC(=O)/C(=C/c2ccccc2)c2ccc([N+](=O)[O-])cc2)C(C(=O)OC)[C@@]2(O)[C@@H](C(=O)OC)[C@H](C)C[C@@H]1[C@@H]2C(=O)OC (some centres undefined) : > 100 µM (inactive)

## Task # return GI50 for Cc1cc2c(c(C(=O)NCC(=O)N[C@@H](C)C(=O)OCc3ccccc3)c1)Oc1c(cc(C)cc1C(=O)NCC(=O)N[C@@H](C)C(=O)OCc1ccccc1)S2 , test system: Malme-3M
## Result 16.1 µM (inactive)

## Task # return GI50 for COc1ccc2nc3c(c(N)c2c1)C1CCC3C1(C)C (centres undefined) , test system: Malme-3M
## Result 24.3 µM (inactive)

## Task # return GI50 for [N-]=[N+]=NC1(c2ccccc2)C(=O)Nc2ccccc2C1=O (centres undefined) , test system: Malme-3M
## Result 40.7 µM (inactive)

## Task # return GI50 for [N-]=[N+]=Nc1ccccc1-c1ccccc1[N+](=O)[O-] , test system: Malme-3M
## Result 26.4 µM (inactive)

----------
test system: A498; test: NCI tumour cell line growth inhibition, 48 h
The source made the active and inactive calls. Rule as the data show it: active = GI50 up to about 1.1 µM and inactive = higher.
parameter: GI50

Below are worked cases with known answers.
O=C1c2c(O)cccc2C(C2OC(CO)C(O)C(O)C2O)c2cc(CO)cc(O)c21 (stereo not given) : > 100 µM (inactive)
COc1cc(/C=C(\OC(C)=O)c2ccc3c(c2)OCO3)cc(OC)c1OC : 16.1 µM (inactive)
C#CC1(O)CCC2[C@@H]3CCc4cc(Oc5nc(F)nc(-c6c7ccccc7c(SCC)n6CCC)n5)ccc4C3CC[C@@]21C (stereo not given in full) : > 100 µM (inactive)
C/C=C1\C=C(OC)CN(CCc2c[nH]c3ccccc23)C1 : 44 µM (inactive)

## Task Please look at this compound and report its GI50: O=c1c2cc(-c3ccccc3)cnc2sn1-c1ccc(Oc2ccccc2)cc1
## Result 25.3 µM (inactive)

----------
test system: NCI-H226; assay: NCI tumour cell line growth inhibition, 48 h
Active and inactive are the calls of the source. No stated cut-off is given here; in the data, active = GI50 up to about 1.1 µM and inactive = higher.
parameter: GI50

Below are worked cases with known answers.
CCOC(=O)CCC(NC(=O)c1ccc(NCc2ccc3nc(OC)c(OC)nc3c2)c2ccccc12)C(=O)OCC (stereo unspecified) : > 100 µM (inactive)
O=C(c1ccccc1)c1c(C(F)(F)F)[n+]([O-])c2cc(F)c(F)cc2[n+]1[O-] : 1.73 µM (inactive)

Turning now to a further molecule:
## Task Please look at this molecule and report its GI50: COC(=O)c1cc2c(c3c1CC(Cc1ccccc1)C3=O)CCC2 (stereo unspecified)
## Result > 100 µM (inactive)

----------
test system: NCI-H460; experiment: NCI tumour cell line growth inhibition, 48 h
Calls of active or inactive are those of the source. No stated cut-off is given here; in the data, active = GI50 up to about 1.1 µM and inactive = higher.
Pick one and only one: 1 (active), 0 (inactive)

CC1=NN(C(=O)c2ccccc2O)C(=O)/C1=C/c1ccco1 : 0
O=C1Nc2ccccc2/C1=N/Nc1nc(-c2ccc(Cl)c(Cl)c2)cs1 : 0
CC(C)Oc1cc(O)c2c(c1)OCC=C2CCC(=O)O : 0
CC(C)c1cccc(C(C)C)c1NC(=O)C(=O)C(C(=O)c1ccccc1-c1ccccc1)C1OC(=O)c2ccccc21 (stereo not given) : 0
COc1nc2nccnc2c(=O)n1C : 0
CC(C)C1=CC(=O)C(C)(C2C(O)CC3(C)C4CC=C5C(CCC(OC6OC(CO)C(O)C(O)C6OC6OC(C)C(O)C(O)C6O)C5(C)C)C4(C)C(=O)CC23C)O1 (stereo not given) : 0
CCCCCCCCOP(=O)(O)OP(=O)(O)OCC1OC(n2ccc(N)nc2=O)C(O)C1O (stereo not given) : 0
COc1cc(C(c2c(O)c3ccccc3oc2=O)c2c(O)c3ccccc3oc2=O)ccc1O : 0
OC(Cc1ccc2ccccc2n1)(C(F)(F)F)C(F)(F)F : 0
O=C(O)c1c[nH]cc1C(=O)O : 0

## Task Query: recorded result category for C/C=C1\C=C(OC)CN(CCc2c[nH]c3ccccc23)C1 in this test
## Result 0

## Task Query: recorded result category for Cc1ccc(-c2nc3cc(Cl)ccc3[nH]2)cc1 in this test
## Result 0

## Task Query: recorded result category for O=c1ccn(C2OC(CN(O)CCC3C(O)C(CO)OC3n3ccc(=O)[nH]c3=O)C(O)C2O)c(=O)[nH]1 (stereo not given) in this test
## Result 0

## Task Query: recorded result category for [N-]=[N+]=Nc1ccccc1-c1ccccc1[N+](=O)[O-] in this test
## Result 0

## Task Query: recorded result category for CC(=O)O[C@H]1C(=O)[C@@]2(C)C(C(OC(=O)c3ccccc3)[C@]3(O)CC(OC(=O)C(O)C(NC(=O)c4cccc(Cl)c4)c4ccccc4)C(C)=C1C3(C)C)[C@]1(OC(C)=O)CO[C@@H]1C[C@@H]2O (stereo not given in full) in this test
## Result 1

## Task Query: recorded result category for CCOC(=O)C(NC(=O)c1cccc(Cl)c1)(Nc1cccc(C)c1)C(F)(F)F (stereo not given) in this test
## Result 0

## Task Query: recorded result category for Cc1nnc(N/N=C2\C(=O)Nc3ccccc32)n1N in this test
## Result 0

## Task Query: recorded result category for NNC(=O)C(=O)N/N=C(\CCCC(=O)Nc1ccc(Cl)cc1)CC(=O)c1ccc(F)cc1 in this test
## Result 0

## Task Query: recorded result category for Cc1cc2c(c(C(=O)NCC(=O)N[C@@H](C)C(=O)OCc3ccccc3)c1)Oc1c(cc(C)cc1C(=O)NCC(=O)N[C@@H](C)C(=O)OCc1ccccc1)S2 in this test
## Result 0

## Task Query: recorded result category for Oc1ccc(Cl)cc1C1=Nn2c(COc3ccc4c(c3)CCCC4)nnc2SC1 in this test
## Result 0

----------
Listed molecules paired with reported GI50
system: Hs-578T; experiment: NCI tumour cell line growth inhibition, 48 h
Activity calls are given as the source filed them. Cut-off read from the data, not from the text of the source: active = GI50 up to about 1.1 µM and inactive = higher.

Below are worked cases with known answers.
C1=CC(=[N+]2N=C(c3ccccc3)CC2c2ccccc2)C=CC1=C1SC(c2ccccc2)(c2ccccc2)c2ccccc21.[O-][Cl+3]([O-])([O-])[O-] (stereo not drawn) : > 100 µM (inactive)
CCOP(=O)(OCC)C(c1ccc(F)cc1)N(C(=O)NC(F)(F)F)c1cccc(C(F)(F)F)c1 (stereo not drawn) : 59.8 µM (inactive)
CCOc1cccc(/C=N/N=C2\C(=O)Nc3c(Cl)cc(Cl)cc32)c1O : > 100 µM (inactive)
Brc1ccc2[nH]cc(-c3nc(-c4c[nH]c5ccccc45)cs3)c2c1 : 5.86 µM (inactive)
CC1(C)Oc2ccc(Cl)cc2C12CC2 : 24.4 µM (inactive)

## Task Please look at this molecule and report its GI50: CCOC(=O)/C=C(/C(=O)OCC)n1cc(C)c(=O)n(Cc2cnnn2CCCCOC(C)=O)c1=O
## Result 45.5 µM (inactive)

## Task Please look at this molecule and report its GI50: CC1(C)C(O)C[C@]23CCC[C@](C)(C[C@@H](O)C12)C3 (stereo partly drawn)
## Result > 100 µM (inactive)

## Task Please look at this molecule and report its GI50: COc1cc(C(=O)Oc2c(C#N)sc3c2c(=O)n(-c2ccccc2)c(=S)n3-c2ccccc2)cc(OC)c1OC
## Result 8.26 µM (inactive)

Values from ChEMBL document CHEMBL1201862
